System: E. coli ATCC 25922
Assay: Enhancement of erythromycin action against E. coli
Format: cell-based, Escherichia coli
Settings: erythromycin at 10.9 µM
Exam item: assign label 1 to entries whose Eryth/E. c: concentration required to restore erythromycin activity (combination MIC) is below 60 µM and label 0 to entries at or above 60 µM. Note that a value of exactly 60 µM receives label 0.

Some solved entries appear below for comparison.
- molecule: "Cc1cccc2c(CC(=O)NCCCNCCCCCCCCCCNCCCNC(=O)Cc3c[nH]c4c(C)cccc34)c[nH]c12.O=C(O)C(F)(F)F.O=C(O)C(F)(F)F [Compound 20e]"
  class-assignment: "label 0"
- molecule: "COc1cccc2c(CC(=O)NCCCNCCCCCCNCCCNC(=O)Cc3c[nH]c4c(OC)cccc34)c[nH]c12.O=C(O)C(F)(F)F.O=C(O)C(F)(F)F [Compound 19b]"
  class-assignment: "label 0"
- molecule: "Cc1ccc2[nH]cc(CC(=O)NCCCNCCCCNCCCNC(=O)Cc3c[nH]c4ccc(C)cc34)c2c1.O=C(O)C(F)(F)F.O=C(O)C(F)(F)F [Compound 17a]"
  class-assignment: "label 0"

We next turn to a different molecule, shown below.
Data request: Hi there! Is Eryth/E. c: concentration required to restore erythromycin activity (combination MIC) for O=C(Cc1c[nH]c2ccc(Br)cc12)NCCCNCCCCCCCCCCNCCCNC(=O)Cc1c[nH]c2ccc(Br)cc12.O=C(O)C(F)(F)F.O=C(O)C(F)(F)F [Compound 15e] below 60 µM, do you know?
Data returned: label 1

---

Tested on: Staphylococcus aureus (ATCC 25923)
Experiment: Intrinsic antimicrobial activity (MIC) against S. aureus
Format: cell-based
Settings: ATCC25923, S. aureus ATCC 25923, mean (n = 3), read-out: MIC S. a
Reported MIC values are given for each entry in this list.
A number alone suffices; assume µM.

- compound: "Cc1ccc2[nH]cc(CC(=O)NCCCNCCCCCCCCCCCCNCCCNC(=O)Cc3c[nH]c4ccc(C)cc34)c2c1.O=C(O)C(F)(F)F.O=C(O)C(F)(F)F [Compound 17f]"
  observation-type: "MIC"
  number: 7.06

Now turn to the next compound.
Data request: Indicate its recorded MIC; the compound in question is O=C(Cc1c[nH]c2ccc(Br)cc12)NCCCNCCCCCCCNCCCNC(=O)Cc1c[nH]c2ccc(Br)cc12.O=C(O)C(F)(F)F.O=C(O)C(F)(F)F [Compound 15c]
Data returned: 12.7

---

Reported MIC values are given for each entry in this list.
Test system: Staphylococcus aureus (ATCC 25923)
Experiment: Intrinsic antimicrobial activity (MIC) against S. aureus
Format: cell-based
Settings: ATCC25923, S. aureus ATCC 25923, mean (n = 3), read-out: MIC S. a
A number alone suffices; assume µM.

Sample answers from the record:
- molecule: "O=C(Cc1c[nH]c2c(F)cccc12)NCCCNCCCCCCCCNCCCNC(=O)Cc1c[nH]c2c(F)cccc12.O=C(O)C(F)(F)F.O=C(O)C(F)(F)F [Compound 18d]"
  result-units: "µM"
  MIC: 29.9
- molecule: "O=C(Cc1c[nH]c2ccc(Br)cc12)NCCCNCCCCCCCCCCCCNCCCNC(=O)Cc1c[nH]c2ccc(Br)cc12.O=C(O)C(F)(F)F.O=C(O)C(F)(F)F [Compound 15f]"
  result-units: "µM"
  MIC: 6.16

Now turn to the next molecule.
Data request: Indicate its recorded MIC; the molecule in question is COc1cccc2c(CC(=O)NCCCNCCCCCCCCCCCCNCCCNC(=O)Cc3c[nH]c4c(OC)cccc34)c[nH]c12.O=C(O)C(F)(F)F.O=C(O)C(F)(F)F [Compound 19f]
Data returned: 13.6

---

Test system: P. aeruginosa ATCC 27853
Test: Enhancement of doxycycline action against P. aeruginosa
Type: cell-based, Pseudomonas aeruginosa
Conditions: doxycycline at 4.5 µM
observation-type: Dox/P. a: concentration required to restore doxycycline activity (combination MIC) (µM)
A number alone suffices; assume µM.

Sample answers from the record:
- compound: "O=C(Cc1c[nH]c2ccc(Br)cc12)NCCCNCCCCCCCCNCCCNC(=O)Cc1c[nH]c2ccc(Br)cc12.O=C(O)C(F)(F)F.O=C(O)C(F)(F)F [Compound 15d]"
  number: 52.2
- compound: "COc1ccc2[nH]cc(CC(=O)NCCCNCCCCCCCCCCNCCCNC(=O)Cc3c[nH]c4ccc(OC)cc34)c2c1.O=C(O)C(F)(F)F.O=C(O)C(F)(F)F [Compound 16e]"
  number: 14.1
- compound: "O=C(Cc1c[nH]c2ccccc12)NCCCNCCCCCCCCNCCCNC(=O)Cc1c[nH]c2ccccc12.O=C(O)C(F)(F)F.O=C(O)C(F)(F)F [Compound 14d]"
  number: 250
- compound: "Cc1ccc2[nH]cc(CC(=O)NCCCNCCCCCCNCCCNC(=O)Cc3c[nH]c4ccc(C)cc34)c2c1.O=C(O)C(F)(F)F.O=C(O)C(F)(F)F [Compound 17b]"
  number: 31.2
- compound: "COc1ccc2[nH]cc(CC(=O)NCCCNCCCCCCCCNCCCNC(=O)Cc3c[nH]c4ccc(OC)cc34)c2c1.O=C(O)C(F)(F)F.O=C(O)C(F)(F)F [Compound 16d]"
  number: 6.25
- compound: "Cc1ccc2[nH]cc(CC(=O)NCCCNCCCCCCCCNCCCNC(=O)Cc3c[nH]c4ccc(C)cc34)c2c1.O=C(O)C(F)(F)F.O=C(O)C(F)(F)F [Compound 17d]"
  number: 241
- compound: "Cc1ccc2[nH]cc(CC(=O)NCCCNCCCCCCCCCCCCNCCCNC(=O)Cc3c[nH]c4ccc(C)cc34)c2c1.O=C(O)C(F)(F)F.O=C(O)C(F)(F)F [Compound 17f]"
  number: 226

Now turn to the next compound.
Data request: Indicate its recorded Dox/P. a: concentration required to restore doxycycline activity (combination MIC); the compound in question is COc1ccc2[nH]cc(CC(=O)NCCCNCCCCCCCCCCCCNCCCNC(=O)Cc3c[nH]c4ccc(OC)cc34)c2c1.O=C(O)C(F)(F)F.O=C(O)C(F)(F)F [Compound 16f]
Data returned: 13.6

---

Experiment: Cytotoxicity assay
Type: cell-based
Details: human; HEK293 cells; mean (n = 2); read-out: Cytotoxicity: concentration of compound at 50% cytotoxicity (IC50)
Reported IC50 values are given for each entry in this list.

Sample answers from the record:
- compound: "Cc1cccc2c(CC(=O)NCCCNCCCCNCCCNC(=O)Cc3c[nH]c4c(C)cccc34)c[nH]c12.O=C(O)C(F)(F)F.O=C(O)C(F)(F)F [Compound 20a]"
  IC50: "> 41 µM"
- compound: "Cc1cccc2c(CC(=O)NCCCNCCCCCCCCNCCCNC(=O)Cc3c[nH]c4c(C)cccc34)c[nH]c12.O=C(O)C(F)(F)F.O=C(O)C(F)(F)F [Compound 20d]"
  IC50: "> 39 µM"
- compound: "COc1ccc2[nH]cc(CC(=O)NCCCNCCCCCCNCCCNC(=O)Cc3c[nH]c4ccc(OC)cc34)c2c1.O=C(O)C(F)(F)F.O=C(O)C(F)(F)F [Compound 16b]"
  IC50: "> 38 µM"

Data request: Indicate its recorded IC50; the compound in question is O=C(Cc1c[nH]c2c(F)cccc12)NCCCNCCCCCCCNCCCNC(=O)Cc1c[nH]c2c(F)cccc12.O=C(O)C(F)(F)F.O=C(O)C(F)(F)F [Compound 18c]
Data returned: > 39 µM

Data request: Indicate its recorded IC50; the compound in question is COc1cccc2c(CC(=O)NCCCNCCCCCCCCCCNCCCNC(=O)Cc3c[nH]c4c(OC)cccc34)c[nH]c12.O=C(O)C(F)(F)F.O=C(O)C(F)(F)F [Compound 19e]
Data returned: > 36 µM

Data request: Indicate its recorded IC50; the compound in question is Cc1cccc2c(CC(=O)NCCCNCCCCCCNCCCNC(=O)Cc3c[nH]c4c(C)cccc34)c[nH]c12.O=C(O)C(F)(F)F.O=C(O)C(F)(F)F [Compound 20b]
Data returned: > 40 µM

---

Tested on: E. coli ATCC 25922
Experiment: Enhancement of erythromycin action against E. coli
Format: cell-based, Escherichia coli
Details: erythromycin at 10.9 µM
Reported Eryth/E. c: concentration required to restore erythromycin activity (combination MIC) values are given for each entry in this list.

Sample answers from the record:
- molecule: "COc1ccc2[nH]cc(CC(=O)NCCCNCCCCCCCCCCNCCCNC(=O)Cc3c[nH]c4ccc(OC)cc34)c2c1.O=C(O)C(F)(F)F.O=C(O)C(F)(F)F [Compound 16e]"
  result: "28.1 µM"
- molecule: "Cc1cccc2c(CC(=O)NCCCNCCCCCCCCCCCCNCCCNC(=O)Cc3c[nH]c4c(C)cccc34)c[nH]c12.O=C(O)C(F)(F)F.O=C(O)C(F)(F)F [Compound 20f]"
  result: "28.2 µM"
- molecule: "COc1ccc2[nH]cc(CC(=O)NCCCNCCCCCCNCCCNC(=O)Cc3c[nH]c4ccc(OC)cc34)c2c1.O=C(O)C(F)(F)F.O=C(O)C(F)(F)F [Compound 16b]"
  result: "50 µM"
- molecule: "O=C(Cc1c[nH]c2ccccc12)NCCCNCCCCCCNCCCNC(=O)Cc1c[nH]c2ccccc12.O=C(O)C(F)(F)F.O=C(O)C(F)(F)F [Compound 14b]"
  result: "> 259 µM"

Data request: Indicate its recorded Eryth/E. c: concentration required to restore erythromycin activity (combination MIC); the molecule in question is O=C(Cc1c[nH]c2ccc(Br)cc12)NCCCNCCCCCCCCCCCCNCCCNC(=O)Cc1c[nH]c2ccc(Br)cc12.O=C(O)C(F)(F)F.O=C(O)C(F)(F)F [Compound 15f]
Data returned: 24.6 µM

Data request: Indicate its recorded Eryth/E. c: concentration required to restore erythromycin activity (combination MIC); the molecule in question is COc1ccc2[nH]cc(CC(=O)NCCCNCCCCCCCCCCCCNCCCNC(=O)Cc3c[nH]c4ccc(OC)cc34)c2c1.O=C(O)C(F)(F)F.O=C(O)C(F)(F)F [Compound 16f]
Data returned: 27.3 µM

Data request: Indicate its recorded Eryth/E. c: concentration required to restore erythromycin activity (combination MIC); the molecule in question is O=C(Cc1c[nH]c2ccc(Br)cc12)NCCCNCCCCCCCNCCCNC(=O)Cc1c[nH]c2ccc(Br)cc12.O=C(O)C(F)(F)F.O=C(O)C(F)(F)F [Compound 15c]
Data returned: 6.62 µM

Data request: Indicate its recorded Eryth/E. c: concentration required to restore erythromycin activity (combination MIC); the molecule in question is O=C(Cc1c[nH]c2c(F)cccc12)NCCCNCCCCCCCCNCCCNC(=O)Cc1c[nH]c2c(F)cccc12.O=C(O)C(F)(F)F.O=C(O)C(F)(F)F [Compound 18d]
Data returned: > 239 µM

Data request: Indicate its recorded Eryth/E. c: concentration required to restore erythromycin activity (combination MIC); the molecule in question is Cc1ccc2[nH]cc(CC(=O)NCCCNCCCCCCNCCCNC(=O)Cc3c[nH]c4ccc(C)cc34)c2c1.O=C(O)C(F)(F)F.O=C(O)C(F)(F)F [Compound 17b]
Data returned: 31.2 µM

Data request: Indicate its recorded Eryth/E. c: concentration required to restore erythromycin activity (combination MIC); the molecule in question is Cc1ccc2[nH]cc(CC(=O)NCCCNCCCCCCCCCCNCCCNC(=O)Cc3c[nH]c4ccc(C)cc34)c2c1.O=C(O)C(F)(F)F.O=C(O)C(F)(F)F [Compound 17e]
Data returned: 29.2 µM

Data request: Indicate its recorded Eryth/E. c: concentration required to restore erythromycin activity (combination MIC); the molecule in question is O=C(Cc1c[nH]c2c(F)cccc12)NCCCNCCCCCCNCCCNC(=O)Cc1c[nH]c2c(F)cccc12.O=C(O)C(F)(F)F.O=C(O)C(F)(F)F [Compound 18b]
Data returned: > 247 µM

Data request: Indicate its recorded Eryth/E. c: concentration required to restore erythromycin activity (combination MIC); the molecule in question is COc1cccc2c(CC(=O)NCCCNCCCCCCCCNCCCNC(=O)Cc3c[nH]c4c(OC)cccc34)c[nH]c12.O=C(O)C(F)(F)F.O=C(O)C(F)(F)F [Compound 19d]
Data returned: > 232 µM

Data request: Indicate its recorded Eryth/E. c: concentration required to restore erythromycin activity (combination MIC); the molecule in question is O=C(Cc1c[nH]c2ccc(Br)cc12)NCCCNCCCCCCCCNCCCNC(=O)Cc1c[nH]c2ccc(Br)cc12.O=C(O)C(F)(F)F.O=C(O)C(F)(F)F [Compound 15d]
Data returned: 52.2 µM
